Molecular target: FPR1 (Homo sapiens)
Sequence (P21462 whole entry, species assumed): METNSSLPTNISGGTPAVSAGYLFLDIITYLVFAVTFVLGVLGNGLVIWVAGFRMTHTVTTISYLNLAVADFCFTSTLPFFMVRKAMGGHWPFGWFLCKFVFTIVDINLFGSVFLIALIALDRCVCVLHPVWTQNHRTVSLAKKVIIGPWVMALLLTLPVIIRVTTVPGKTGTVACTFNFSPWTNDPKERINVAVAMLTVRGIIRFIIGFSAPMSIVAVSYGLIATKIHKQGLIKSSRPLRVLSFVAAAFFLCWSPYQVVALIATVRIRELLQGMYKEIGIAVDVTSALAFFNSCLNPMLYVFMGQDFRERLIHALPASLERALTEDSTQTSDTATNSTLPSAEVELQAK
Experiment: Change in calcium activity by peptide, FPR1 activation effect
Details: calcium activity (Fura-2), graded per Table 3, read-out: EC50 for [Ca^2+] FPR1
Peptide text beside a SMILES is read from it.
I'd be grateful if you could share measured EC50 for these entries.

COMPOUND: CSCC[C@@H](NC(=O)[C@H](Cc1ccc(O)cc1)NC(=O)[C@H](CC(N)=O)NC(=O)[C@H](Cc1ccc(O)cc1)NC(=O)[C@H](CCCNC(=N)N)NC(=O)[C@H](Cc1c[nH]c2ccccc12)NC(=O)[C@@H](N)CCCNC(=N)N)C(N)=O [Peptide 155] (HELM PEPTIDE1{R.W.R.Y.N.Y.[dM].[am]}$$$$V2.0)
EC50: > 10 µM

For every item below, please supply its EC50.
1. CCCCCCCC(=O)N[C@@H](CCCCN)C(=O)N[C@@H](CCSC)C(=O)N[C@@H](CCCCN)C(=O)N[C@@H](Cc1ccc(O)cc1)C(=O)N[C@@H](CCCCN)C(=O)N1CCC[C@H]1C(=O)N[C@H](CCSC)C(N)=O [Peptide 69] (HELM PEPTIDE1{[CCCCCCCC(=O)[*:2]].K.M.K.Y.K.P.[dM].[am]}$$$$V2.0)
2. CSCC[C@H](NC(=O)[C@@H](N)Cc1c[nH]cn1)C(=O)N[C@@H](CCCNC(=N)N)C(=O)N[C@@H](Cc1ccc(O)cc1)C(=O)N[C@@H](CCCNC(=N)N)C(=O)N[C@H](C(=O)N[C@H](CCSC)C(N)=O)C(C)C [Peptide 31] (HELM PEPTIDE1{H.M.R.Y.R.V.[dM].[am]}$$$$V2.0)
3. CSCC[C@H](N)C(=O)N[C@@H](CCCNC(=N)N)C(=O)N[C@@H](Cc1ccc(O)cc1)C(=O)N[C@@H](Cc1ccc(O)cc1)C(=O)N1CCC[C@H]1C(=O)N[C@H](CCSC)C(N)=O [Peptide 120] (HELM PEPTIDE1{M.R.Y.Y.P.[dM].[am]}$$$$V2.0)
4. CSCC[C@H](NC(=O)[C@@H](N)CCCCN)C(=O)N[C@@H](CCCCN)C(=O)N[C@@H](Cc1ccc(O)cc1)C(=O)N[C@@H](CCCCN)C(=O)N[C@H](C(=O)N[C@H](CCSC)C(N)=O)C(C)C [Peptide 9] (HELM PEPTIDE1{K.M.K.Y.K.V.[dM].[am]}$$$$V2.0)
5. CSCC[C@H](N)C(=O)N[C@@H](CCCCN)C(=O)N[C@@H](Cc1ccc(O)cc1)C(=O)N[C@@H](Cc1c[nH]c2ccccc12)C(=O)N[C@@H](Cc1ccc(O)cc1)C(=O)N[C@H](CCSC)C(N)=O [Peptide 89] (HELM PEPTIDE1{M.K.Y.W.Y.[dM].[am]}$$$$V2.0)
6. CSCC[C@H](NC(C)=O)C(=O)N[C@@H](CCCNC(=N)N)C(=O)N[C@@H](Cc1ccc(O)cc1)C(=O)N[C@@H](Cc1c[nH]c2ccccc12)C(=O)N1CCC[C@H]1C(=O)N[C@H](CCSC)C(N)=O [Peptide 111] (HELM PEPTIDE1{[ac].M.R.Y.W.P.[dM].[am]}$$$$V2.0)

a:
1: > 10 µM; 2: 1 to 10 µM; 3: 0.101 to 1 µM; 4: > 10 µM; 5: > 10 µM; 6: 1 to 10 µM

For every item below, please supply its EC50.
1. CSCC[C@H](NC(=O)[C@@H](N)CCCCN)C(=O)N[C@@H](CCCCN)C(=O)N[C@@H](Cc1ccc(O)cc1)C(=O)N[C@@H](CCCCN)C(=O)N1CCC[C@H]1C(=O)N[C@H](CCSC)C(N)=O [Peptide 66] (HELM PEPTIDE1{K.M.K.Y.K.P.[dM].[am]}$$$$V2.0)
2. CSCC[C@H](NC(=O)[C@@H]1CCCN1)C(=O)N[C@@H](CCCCN)C(=O)N[C@@H](Cc1ccc(O)cc1)C(=O)N[C@@H](CCCCN)C(=O)N[C@H](C(=O)N[C@H](CCSC)C(N)=O)C(C)C [Peptide 25] (HELM PEPTIDE1{P.M.K.Y.K.V.[dM].[am]}$$$$V2.0)
3. CSCC[C@H](NC(=O)[C@@H](N)CCCNC(=N)N)C(=O)N[C@@H](CCCNC(=N)N)C(=O)N[C@@H](Cc1ccc(O)cc1)C(=O)N[C@@H](Cc1c[nH]c2ccccc12)C(=O)N1CCC[C@H]1C(=O)N[C@H](CCSC)C(N)=O [Peptide 106] (HELM PEPTIDE1{R.M.R.Y.W.P.[dM].[am]}$$$$V2.0)
4. CSCC[C@@H](NC(=O)[C@@H](NC(=O)[C@H](CCCNC(=N)N)NC(=O)[C@H](Cc1ccc(O)cc1)NC(=O)[C@H](CCCNC(=N)N)NC(=O)[C@H](Cc1c[nH]c2ccccc12)NC(=O)[C@@H](N)CCCNC(=N)N)[C@@H](C)O)C(N)=O [Peptide 153] (HELM PEPTIDE1{R.W.R.Y.R.T.[dM].[am]}$$$$V2.0)

a:
1. > 10 µM
2. > 10 µM
3. 0.101 to 1 µM
4. > 10 µM
